Test system: Noggin (protein binding on small-molecule microarray)
Assay: Noggin binders on small-molecule microarray, primary screen, biochemical, 635/667 nm fluorescence (AID 1095);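 also: score merges 667 nm feature fluorescence with signal to noise over triplicate slides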
Condition set: 635 nm fluorescence, higher = more signal
Outcome label depends on composite z-score relative to 0.7: at/above gives Criterion met, below gives Criterion not met.

Worked set:
| Molecule | Subject of test | Classification |
| --- | --- | --- |
| O=C(O)[C@H](Cc1ccccc1)n1cc(-c2ccccn2)nn1 | Noggin (protein binding on small-molecule microarray) | Criterion not met |
| Cc1ccc(F)cc1S(=O)(=O)N[C@@H]1CCN(Cc2ccc(Oc3ccccc3)cc2)C1 | Noggin (protein binding on small-molecule microarray) | Criterion met |
| CO[C@H]1O[C@H](CO)[C@@H](OC(=O)Nc2ccc(C(F)(F)F)cc2)[C@H](OC(=O)Nc2ccc3c(c2)OCO3)[C@H]1OC(=O)Nc1ccc2c(c1)OCO2 | Noggin (protein binding on small-molecule microarray) | Criterion not met |

**Q:** Given COc1ccc(C(O)C2C=CC3C(=O)N(Cc4ccccc4)C(=O)C3N2n2cnnc2)c2ccccc12 (stereo unspecified) , state whether its composite z-score is at least 0.7.
**A:** Criterion not met

**Q:** Given CN1C(=O)C2C=CC(C(O)c3c(F)cccc3Cl)N(Nc3ccccc3)C2C1=O (stereo unspecified) , state whether its composite z-score is at least 0.7.
**A:** Criterion not met

**Q:** Given `CC(C)C[C@@H]1NC(=O)[C@H]2C[C@@H](C(=O)NCCCCCC[N+](C)(C)C)[C@@H](c3cccc(OCCO)c3)N2C1=O` , state whether its composite z-score is at least 0.7.
**A:** Criterion met

**Q:** Given `O=C(O)[C@H]1C[C@H]2C(=O)N3CCC[C@H]3C(=O)N2[C@H]1c1cccc(OCCO)c1` , state whether its composite z-score is at least 0.7.
**A:** Criterion not met

**Q:** Given `COc1ccc([Si](C)(C)[C@H]2[C@H](CCn3cc(CCO)nn3)O[C@@]3(C(=O)N(Cc4ccc(N5C(=O)c6cccc7cccc5c67)cc4)c4ccccc43)[C@@H]2C)cc1` , state whether its composite z-score is at least 0.7.
**A:** Criterion met

**Q:** Given `C=CCNC(=O)[C@@H]1[C@H]2C(=O)O[C@H](c3ccccc3)[C@H](c3ccccc3)N2[C@H](c2ccc(OCCO)cc2)[C@@]12C(=O)N(C(=O)OCCOC)c1ccc(C#CC3=CCCCC3)cc12` , state whether its composite z-score is at least 0.7.
**A:** Criterion met

**Q:** Given `Cc1ccc(S[C@]2(C(=O)NC3CC3)CC(=O)N(Cc3ccccc3Cl)[C@@H]2c2ccc(CO)cc2I)cc1` , state whether its composite z-score is at least 0.7.
**A:** Criterion met
